system: HOP-62 NSCLC; assay: NCI tumour cell line growth inhibition, 48 h; in the data active means GI50 below about 0.43 µM; inactive means the rest
Answer with one of the outcomes active, inactive

Please review the entries below; each comes with its answer.
COc1ccccc1Cn1cc2c(c1-c1ccccc1)CCc1cnoc1-2 :: inactive
COc1cc(NS(=O)(=O)c2ccc(-c3cnc(C4CC4)o3)cc2)ccc1F :: inactive
CCc1oc2ccccc2c1C(=O)c1cc(I)c(O)c(I)c1 :: inactive
COC(=O)C12C3C4C1C1C2C3C41NC(=O)c1csc([C@@H](C[C@H](C(C)C)N(C)C(=O)[C@@H](NC(=O)[C@H]2CCCCN2C)C2CC2)OC(C)=O)n1 (stereo partly drawn) :: active
Cc1ccc2[nH]c(C(=O)NN3C(=O)C(C)SC34CCCC(C)C4)c(-c3ccccc3)c2c1 (stereo not drawn) :: inactive
COc1cc2c3c(n(C)c(=O)c2cc1OC)-c1cc2c(cc1/C3=C\CNCCCN)OCO2 :: inactive
N#Cc1cccc(NC(=O)c2cc(-c3ccc(F)cc3F)ccc2O)c1 :: inactive
Cc1ccc(C(=O)Nc2ccc(CN3CCN(C)CC3)c(C(F)(F)F)c2)cc1C#Cc1cnc(N)c2ccccc12 :: inactive

Entry CCCCCN(CCCCC)CC(O)c1ccc(Cl)c2ccccc12 (stereo not drawn) : call = ?
inactive

Entry Cn1c2ccccc2c2c3[nH]c(=O)[nH]c(=O)c3c3c4ccccc4n(C)c3c21 : call = ?
inactive

Entry C=C1C(=O)O[C@H]2[C@H]1CC/C(COC(=O)c1cc3ccccc3s1)=C\CC[C@@]1(C)O[C@@H]21 : call = ?
inactive

Entry Cc1cc(O)c(C(C)(C)C)cc1Sc1cc(C(C)(C)C)c(O)cc1C : call = ?
inactive

Entry CCNc1cc2c(cc1O)CC[C@@H]1[C@@H]2CC[C@]2(C)[C@@H](O)CC[C@@H]12 : call = ?
inactive
